Field: pKi. Provide a value for each of the molecules that follow.
measurementTarget: UniProt:Q13451
Sequence (Q13451 42-130 limits assumed): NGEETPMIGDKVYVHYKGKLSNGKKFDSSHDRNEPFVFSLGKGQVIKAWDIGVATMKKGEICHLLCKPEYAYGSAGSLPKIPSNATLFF
assaySummary: Fluorescence polarization (FP) assay, binding to the FK506-binding domain of FKBP51
experimentalParameters: FK506-binding domain of FKBP51 (FKBP51FK1), competition with fluorescent ligand 2b
pKi: −log10 of the molar value.

Known pKi results, listed for orientation:
[[record]]
molecule = "COC[C@H]1CN(Cc2cnn[nH]2)C(=O)[C@@H]2CCC[C@H]1N2S(=O)(=O)c1cc(Cl)c(NC(C)=O)c(Cl)c1"
result = "≥ 7.00"

[[record]]
molecule = "O=C1[C@@H]2CCC[C@H]([C@@H](CF)CN1Cc1ccccn1)N2S(=O)(=O)c1cc(Cl)cc(Cl)c1"
result = "≥ 7.00"

[[record]]
molecule = "C=CC1CN(Cc2ccccn2)C(=O)C2CCCC1N2S(=O)(=O)c1cccc(C(N)=O)c1 (stereo in doubt)"
result = "6.30 to 7.00"


Next item in the queue.
Requested field: pKi. Item: `C#CCN1C[C@H](COC)[C@H]2CCC[C@@H](C1=O)N2S(=O)(=O)c1cc(Br)cc(Br)c1` 6.30 to 7.00

---

measurementTarget: FKBP51 (Homo sapiens, UniProt Q13451)
Sequence (Q13451 42-130 limits assumed): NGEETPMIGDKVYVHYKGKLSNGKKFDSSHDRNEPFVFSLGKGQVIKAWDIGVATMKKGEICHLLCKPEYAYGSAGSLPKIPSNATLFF
pKi: −log10 of the molar value.
recordedMetric: pKi

Known pKi results, listed for orientation:
[[record]]
molecule = "C#CCN1C[C@H](COC)[C@H]2CCC[C@@H](C1=O)N2S(=O)(=O)c1ccc(-c2ccccc2)nc1 [Compound N14]"
recordedmetric = "pKi"
result = "6.30 to 7.00"

[[record]]
molecule = "C#CCN1CC(C=C)C2CCCC(C1=O)N2S(=O)(=O)c1cc(Cl)cc(Cl)c1 (stereo in doubt) [Compound J12]"
recordedmetric = "pKi"
result = "6.30 to 7.00"

[[record]]
molecule = "C=CC1CN(Cc2ccccn2)C(=O)C2CCCC1N2S(=O)(=O)c1nc2ccccc2[nH]1 (stereo in doubt) [Compound K29]"
recordedmetric = "pKi"
result = "≥ 7.00"


Items follow; give pKi for each.
1. COC[C@H]1CN(Cc2cnn[nH]2)C(=O)[C@@H]2CCC[C@H]1N2S(=O)(=O)c1cc(Br)cc(C(N)=O)c1 [Compound N20]
2. COCC1CN(Cc2cnnn2-c2ccccc2)C(=O)C2CCCC1N2S(=O)(=O)c1cccc(F)c1 (stereo in doubt) [Compound N29]
3. C=CC1CN(Cc2ccccn2)C(=O)C2CCCC1N2S(=O)(=O)c1cccc(Br)c1 (stereo in doubt) [Compound K5]
4. COC[C@H]1CN(Cc2cnn[nH]2)C(=O)[C@@H]2CCC[C@H]1N2S(=O)(=O)c1cc(Cl)cc(C(N)=O)c1 [Compound N21]
5. N[C@@H]1CNC(=O)[C@@H]2CCC[C@H]1N2S(=O)(=O)c1cc(Cl)cc(Cl)c1 [Compound H1.2]
6. COc1ccc(OCCN2C[C@H](CCO)[C@H]3CCC[C@@H](C2=O)N3S(=O)(=O)c2cc(Cl)cc(Cl)c2)cc1OC [Compound D8]
7. COC[C@H]1CN(Cc2cnn[nH]2)C(=O)[C@@H]2CCC[C@H]1N2S(=O)(=O)c1ccc(NC(C)=O)c(Br)c1 [Compound N22]

≥ 7.00
6.30 to 7.00
≥ 7.00
≥ 7.00
5.30 to 6.00
≥ 7.00
≥ 7.00

The measured values listed here are drawn from patent US9914732B2.
